Source listed as the supplement of paper PMC8967900.

- System: NALM-6
- experimental protocol: selective drug sensitivity score (sDSS, relative to normal bone marrow) (sDSS (score)); higher = more potent and effective on the cell line relative to normal bone marrow cells;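 note: ALL cell lines in 384-well plates, five doses spanning 10,000-fold, each plate scaled between vehicle and 100 µmol/L benzalkonium chloride controls, sDSS an adapted area-under-curve metric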
- applied conditions: 72 h
Give true (1) when the value for selective drug sensitivity score is at least 0. Give false (0) when it is less.

- Cc1ccc(-n2nc(C(C)(C)C)cc2NC(=O)Nc2ccc(OCCN3CCOCC3)c3ccccc23)cc1 [Doramapimod] (top concentration 10000 nM): false (0)
- CC(C)Nc1cc(-c2c[nH]c(C(=O)N[C@H](CO)c3cccc(Cl)c3)c2)c(Cl)cn1 [Ulixertinib] (top concentration 10000 nM): true (1)
- CCCCCCCCCCCCCCCCOP(=O)([O-])OCC[N+](C)(C)C [Miltefosine] (top concentration 100000 nM): true (1)
- CC(C)[C@H](C(=O)Nc1ccc(C(=O)NO)cc1)c1ccccc1 [AR-42] (top concentration 10000 nM): true (1)

----------
Quick reference: selective drug sensitivity score of the listed items.
- Tested on: PEER
- experimental protocol: selective drug sensitivity score (sDSS, relative to normal bone marrow) (sDSS (score)); higher = more potent and effective on the cell line relative to normal bone marrow cells
- applied conditions: 72 h
assay readout: selective drug sensitivity score

* CN(Cc1cnc2nc(N)nc(N)c2n1)c1ccc(C(=O)N[C@@H](CCC(=O)O)C(=O)O)cc1 [Methotrexate] (top concentration 5000 nM) | 14.6
* CC(C)[C@H]1C(=O)N[C@@H](CCCNC(=N)N)C(=O)NCC(=O)N[C@@H](CC(=O)O)C(=O)N[C@H](Cc2ccccc2)C(=O)N1C [Cilengitide] (top concentration 10000 nM) | 0
* Cc1[nH]nc(C(F)(F)F)c1Cc1sc2c(c1C(=O)N1C[C@](C)(O)CO1)c(=O)n(C)c(=O)n2C(C)C [AZD3965] (top concentration 1000 nM) | 0
* NC(=O)/C(=C/n1cnc(-c2cc(C(F)(F)F)cc(C(F)(F)F)c2)n1)c1cncnc1 [Eltanexor] (top concentration 10000 nM) | 7.56
* O=C(NCc1ccncc1)C12CC3CC(C1)CC(c1ccc(Cl)cc1)(C3)C2 (top concentration 50000 nM) | 2.88
* O=c1[nH]c(=O)n([C@H]2C[C@H](O)[C@@H](CO)O2)cc1C(F)(F)F [Trifluridine] (top concentration 10000 nM) | 7.66
* Clc1ccc(C(c2ccccc2Cl)C(Cl)Cl)cc1 (configuration not stated) [Mitotane] (top concentration 10000 nM) | -0.08
* CN1CC[C@@H](NC(=O)Nc2ccc(C#N)cc2)C[C@@H]1c1nc2ccccc2[nH]1 [Glasdegib] (top concentration 1000 nM) | 0
* CCCCOc1nc(N)c2c(n1)N(Cc1cccc(CN3CCCC3)c1)CC(=O)N2 [Vesatolimod] (top concentration 10000 nM) | -3.52
* O=C1NC(=O)[C@@H](c2cn3c4c(cccc24)CCC3)[C@@H]1c1c[nH]c2ccccc12 [Tivantinib] (top concentration 1000 nM) | 4.38
* CCCCC(=O)OCC(=O)[C@]1(O)Cc2c(O)c3c(c(O)c2[C@@H](O[C@H]2C[C@H](NC(=O)C(F)(F)F)[C@H](O)[C@H](C)O2)C1)C(=O)c1c(OC)cccc1C3=O [Valrubicin] (top concentration 5000 nM) | -9.32
* Nc1ccccc1NC(=O)c1ccc(CNC(=O)OCc2cccnc2)cc1 [Entinostat] (top concentration 10000 nM) | 6.88
